- run.description: Peak excitation/emission wavelengths and extinction coefficient in PBS
- Type: physicochemical
- applied.conditions: emission
- Description: Stock solutions of the freshly-purified tetrazine dyes were prepared in MeCN and stored in the dark at 4° C. during experiments. For fluorescence measurements, the probes diluted into 2 mL or 3 mL of phosphate buffered saline (PBS), pH 7.4 (Corning, cellgro) in a standard 10 mm quartz cuvette. […] Fluorescence experiments were conducted at a range of dye concentrations spanning 100 nM-750 nM, with 500 nM being a typical working concentration. […]
assay.readout: Peak Em Wavelength (nm)

compound | endpoint.unit | Peak Em Wavelength
Cc1nnc(-c2cccc(-c3c(C)c4cc5c(cc4oc3=O)NCCC5)c2)nn1 [HELIOS 388Me] | nm | 482
Cc1nnc(-c2cccc(-c3c(C)c4cc(F)c(O)c(F)c4oc3=O)c2)nn1 [HELIOS 370Me] | nm | 463
Cc1c(CC(=O)NCc2ccc(-c3nncnn3)cc2)c(=O)oc2c(F)c(O)c(F)cc12 [Marina Blue-Tz, reference compound] | nm | 459
Cc1nnc(-c2cccc(-c3c(C)c4ccc(N)cc4oc3=O)c2)nn1 [HELIOS 347Me] | nm | 455
